Biological target: human A1 adenosine receptor (Homo sapiens)
Construct: expressed in transfected cells; host or cells: CHO cells (membranes)
Experiment: [3H]DPCPX binding to human A1 receptors expressed in CHO cells
Settings: geometric mean (95% confidence interval); >1000 = no appreciable binding
pKi: −log10 of the molar value.
Criterion: pKi meeting or surpassing 6. Met: MET. Not met: NOT MET.

molecule | class assignment
CCCn1c(=O)c2[nH]c(-c3cc(OCC(=O)N4CCN(c5ccccc5)CC4)nn3C)nc2n(CCC)c1=O [AS70] | MET
CCCn1c(=O)c2[nH]c(-c3cc(OCC(=O)Nc4ccc(Br)cc4)nn3C)nc2n(CCC)c1=O [AS65] | MET
CCCn1c(=O)c2[nH]c(-c3cc(OCC(=O)Nc4ccc(C)cc4)nn3C)nc2n(CCC)c1=O [AS92] | MET
CCCn1c(=O)c2[nH]c(-c3cc(NC(=O)Cc4ccc5c(c4)OCO5)nn3C)nc2n(CCC)c1=O [AS57] | MET
CCCn1c(=O)c2[nH]c(-c3cc(NC(=O)Nc4cccc(Cl)c4)nn3C)nc2n(CCC)c1=O [AS54] | MET
CCCn1c(=O)c2[nH]c(-c3cc(NC(=O)Nc4cccc(OC)c4)nn3C)nc2n(CCC)c1=O [AS55] | NOT MET
CCCn1c(=O)c2[nH]c(-c3cc(NC(=O)Cc4ccc(F)cc4)nn3C)nc2n(CCC)c1=O [AS22] | MET
CCCn1c(=O)c2[nH]c(-c3cc(NC(=O)Cc4ccc(F)c(F)c4)nn3C)nc2n(CCC)c1=O [AS43] | NOT MET

----------
Target: human A1 adenosine receptor (Homo sapiens, UniProt P30542)
Construct: expressed in transfected cells; host or cells: CHO cells (membranes)
Sequence (P30542 whole entry): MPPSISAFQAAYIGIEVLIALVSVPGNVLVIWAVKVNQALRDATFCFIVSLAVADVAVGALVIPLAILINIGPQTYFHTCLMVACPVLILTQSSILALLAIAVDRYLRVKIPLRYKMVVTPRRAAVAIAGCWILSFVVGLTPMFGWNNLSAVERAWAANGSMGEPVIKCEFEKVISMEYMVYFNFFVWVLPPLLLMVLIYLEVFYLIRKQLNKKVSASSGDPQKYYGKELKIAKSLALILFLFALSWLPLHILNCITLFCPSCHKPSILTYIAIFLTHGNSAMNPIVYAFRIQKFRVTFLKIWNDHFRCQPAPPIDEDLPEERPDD
Experiment: [3H]DPCPX binding to human A1 receptors expressed in CHO cells
Settings: geometric mean (95% confidence interval); >1000 = no appreciable binding
pKi: −log10 of the molar value.
Criterion: pKi meeting or surpassing 6. Met: Criterion met. Not met: Criterion not met.

compound string | class assignment
CCCn1c(=O)c2[nH]c(-c3cc(NC(=O)Cc4ccc(Cl)cc4)nn3C)nc2n(CCC)c1=O | Criterion met
CCCn1c(=O)c2[nH]c(-c3cc(NC(=O)Cc4cccc(Cl)c4)nn3C)nc2n(CCC)c1=O | Criterion not met
CCCn1c(=O)c2[nH]c(-c3cc(NC(=O)Nc4ccc(N(C)C)cc4)nn3C)nc2n(CCC)c1=O | Criterion not met
CCCn1c(=O)c2[nH]c(-c3cc(OCC(=O)Nc4ccc(F)cc4)n(C)n3)nc2n(CCC)c1=O | Criterion met
CC(C)Cn1c(=O)c2[nH]c(-c3cc(OCC(=O)Nc4ccc(Br)cc4)nn3C)nc2n(CC(C)C)c1=O | Criterion not met

----------
Target: UniProt:P29275
Sequence (P29275 1-332): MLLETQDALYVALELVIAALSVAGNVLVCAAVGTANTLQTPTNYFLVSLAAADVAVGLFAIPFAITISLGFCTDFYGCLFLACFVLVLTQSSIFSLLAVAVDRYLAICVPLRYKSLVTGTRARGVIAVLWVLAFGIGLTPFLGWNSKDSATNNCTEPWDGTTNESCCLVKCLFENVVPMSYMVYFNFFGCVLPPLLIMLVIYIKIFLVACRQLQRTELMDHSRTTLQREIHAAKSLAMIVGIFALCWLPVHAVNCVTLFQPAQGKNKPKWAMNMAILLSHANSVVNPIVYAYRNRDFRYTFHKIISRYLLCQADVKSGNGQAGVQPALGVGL
Test: [3H]DPCPX binding to human A2B receptors expressed in HEK293 cells
Design: host or cells: HEK 293 cells (membranes)
Conditions: geometric mean (95% confidence interval); >1000 = no appreciable binding; read-out: Ki, [3H]DPCPX binding to human A2B receptors expressed in HEK293 cells

compound string | unit string | censoring sign | Ki
CCCn1c(=O)c2[nH]c(-c3cc(OCC(=O)Nc4ccc(OC)cc4)no3)nc2n(CCC)c1=O | nM | = | 53
CCCn1c(=O)c2[nH]c(-c3cc(NC(=O)[C@H](C)c4ccccc4)nn3C)nc2n(CCC)c1=O | nM | > | 1000
CCCn1c(=O)c2[nH]c(-c3cc(NC(=O)Cc4ccc(OCc5ccccc5C(F)(F)F)cc4)nn3C)nc2n(CCC)c1=O | nM | = | 13
CCCn1c(=O)c2[nH]c(-c3cc(NC(=O)Cc4ccc(C(F)(F)F)cc4)nn3C)nc2n(CCC)c1=O | nM | = | 190
CCCn1c(=O)c2[nH]c(-c3cc(NC(=O)Cc4ccc(OC)cc4)nn3C)nc2n(CCC)c1=O | nM | = | 100
CCCn1c(=O)c2[nH]c(-c3cc(OCC(=O)Nc4ccc(N5CCOCC5)cc4)nn3C)nc2n(CCC)c1=O | nM | = | 86
CCCn1c(=O)c2[nH]c(-c3cc(NC(=O)Cc4ccc(OCc5ccc([N+](=O)[O-])cc5)cc4)nn3C)nc2n(CCC)c1=O | nM | = | 111
Cn1nc(NC(=O)Cc2ccccc2)cc1-c1nc2c([nH]1)c(=O)n(C)c(=O)n2C | nM | = | 569
CCCn1c(=O)c2[nH]c(-c3cc(NC(=O)Cc4ccc(N(C)C)cc4)nn3C)nc2n(CCC)c1=O | nM | = | 1630
CCCn1c(=O)c2[nH]c(-c3cc(NC(=O)Nc4ccc(OC)cc4)nn3C)nc2n(CCC)c1=O | nM | = | 81
CCCn1c(=O)c2nc(-c3cc(OCC(=O)Nc4ccc(Br)cc4)n(C)n3)[nH]c2n(CCC)c1=O | nM | = | 93
CCCn1c(=O)c2[nH]c(-c3cc(NC(=O)Cc4ccc(OCc5ccccc5)c(OC)c4)nn3C)nc2n(CCC)c1=O | nM | = | 100
CCCn1c(=O)c2[nH]c(-c3cc(NC(=O)Cc4ccccc4)nn3C)nc2n(CCC)c1=O | nM | = | 35
CCCn1c(=O)c2[nH]c(-c3cc(OCC(=O)Nc4ccc(OC)c(OC)c4)nn3C)nc2n(CCC)c1=O | nM | = | 12
CCCn1c(=O)c2[nH]c(-c3cc(OCC(=O)N4CCN(Cc5ccccc5)CC4)nn3C)nc2n(CCC)c1=O | nM | = | 85
CCCn1c(=O)c2[nH]c(-c3cc(OCC(=O)N4CCN(c5ccc(F)cc5)CC4)nn3C)nc2n(CCC)c1=O | nM | = | 55

----------
Target: human A2B adenosine receptor (Homo sapiens, UniProt P29275)
Sequence (P29275 1-332): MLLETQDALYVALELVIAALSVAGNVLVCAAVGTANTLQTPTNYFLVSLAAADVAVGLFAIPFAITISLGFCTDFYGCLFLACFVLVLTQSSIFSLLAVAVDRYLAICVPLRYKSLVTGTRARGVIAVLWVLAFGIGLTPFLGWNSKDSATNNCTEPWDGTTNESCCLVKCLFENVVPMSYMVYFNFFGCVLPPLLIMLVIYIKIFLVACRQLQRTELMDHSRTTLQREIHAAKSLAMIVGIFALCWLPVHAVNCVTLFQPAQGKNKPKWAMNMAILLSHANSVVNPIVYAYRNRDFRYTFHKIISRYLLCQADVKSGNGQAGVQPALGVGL
Experiment: [3H]DPCPX binding to human A2B receptors expressed in HEK293 cells
Parameters: host or cells: HEK 293 cells (membranes)
Conditions: geometric mean (95% confidence interval); >1000 = no appreciable binding; read-out: Ki, [3H]DPCPX binding to human A2B receptors expressed in HEK293 cells
observable: Ki (nM)

molecule | censoring sign | recorded value
CCCn1c(=O)c2[nH]c(-c3cc(C(=O)O)n(C)n3)nc2n(CCC)c1=O [AS1] | > | 1000
CCCn1c(=O)c2[nH]c(-c3cc(NC(=O)Nc4cccc(Cl)c4)nn3C)nc2n(CCC)c1=O [AS54] | = | 39
CCCn1c(=O)c2c(nc(/C=C/c3cc(C(=O)OCC)n(C)c3)n2C)n(CCC)c1=O [AS33] | > | 1000
C=CCn1c(=O)c2[nH]c(-c3cc(OCC(=O)N4CCN(c5ccccc5)CC4)nn3C)nc2n(CC=C)c1=O [AS96] | = | 24
CCCn1c(=O)c2[nH]c(-c3cc(OCC(=O)Nc4ccc(C(=O)OCC)cc4)nn3C)nc2n(CCC)c1=O [AS94] | = | 32
CCCn1c(=O)c2[nH]c(-c3cc(NC(=O)Cc4ccccc4)n(C)n3)nc2n(CCC)c1=O [AS35] | = | 34
CCCn1c(=O)c2[nH]c(-c3cc(NC(=O)Cc4ccc(Cl)cc4)nn3C)nc2n(CCC)c1=O [AS27] | = | 28

----------
Target: human A2B adenosine receptor (Homo sapiens)
Assay: [3H]DPCPX binding to human A2B receptors expressed in HEK293 cells
Set-up: host or cells: HEK 293 cells (membranes)
Conditions: geometric mean (95% confidence interval); >1000 = no appreciable binding; read-out: Ki, [3H]DPCPX binding to human A2B receptors expressed in HEK293 cells
pKi: −log10 of the molar value.

compound string | subject of test | pKi
CCCn1c(=O)c2[nH]c(-c3cc(NC(=O)CCC(=O)O)nn3C)nc2n(CCC)c1=O | human A2B adenosine receptor (Homo sapiens) | < 6.00
CCCn1c(=O)c2[nH]c(-c3cc(NC(=O)CCCNC(=O)OC(C)(C)C)nn3C)nc2n(CCC)c1=O | human A2B adenosine receptor (Homo sapiens) | < 6.00
CCCn1c(=O)c2[nH]c(-c3cc(NC(=O)Cc4ccc(CC(C)C)cc4)nn3C)nc2n(CCC)c1=O | human A2B adenosine receptor (Homo sapiens) | < 6.00
